Molecular target: Prostaglandin G/H synthase 1 (Ovis aries, UniProt P05979)
Sequence (P05979 whole entry): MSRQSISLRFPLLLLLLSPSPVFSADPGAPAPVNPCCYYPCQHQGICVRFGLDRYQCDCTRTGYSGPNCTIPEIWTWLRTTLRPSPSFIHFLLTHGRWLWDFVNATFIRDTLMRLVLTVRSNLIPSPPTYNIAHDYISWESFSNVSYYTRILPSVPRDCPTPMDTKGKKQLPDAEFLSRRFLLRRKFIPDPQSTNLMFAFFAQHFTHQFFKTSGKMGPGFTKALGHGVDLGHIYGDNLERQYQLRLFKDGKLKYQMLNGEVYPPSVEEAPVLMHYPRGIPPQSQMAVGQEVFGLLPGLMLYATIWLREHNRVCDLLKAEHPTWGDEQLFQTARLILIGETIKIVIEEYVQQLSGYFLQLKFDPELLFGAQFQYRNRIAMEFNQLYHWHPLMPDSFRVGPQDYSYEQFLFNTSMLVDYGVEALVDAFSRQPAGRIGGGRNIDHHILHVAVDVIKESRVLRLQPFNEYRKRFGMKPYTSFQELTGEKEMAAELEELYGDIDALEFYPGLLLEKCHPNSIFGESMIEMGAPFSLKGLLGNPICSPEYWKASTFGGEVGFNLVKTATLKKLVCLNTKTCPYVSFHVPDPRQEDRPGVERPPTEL
Published IC50 for Prostaglandin G/H synthase 1 (Ovis aries, UniProt P05979), assembled from different documents, is shown next.
RECORDED METRIC: IC50 (µM)

CCCC/C(=C(\c1ccccc1)c1ccc(S(C)(=O)=O)cc1)c1ccccc1    30

a = C=CCC1=C[C@@]2(OC)[C@H](C)[C@@H](c3ccc(OC)c(OC)c3)[C@H](C1=O)[C@@H]2O
b = CC(C(=O)O)c1ccc(-c2ccn(C(F)F)c(=O)c2)cc1 (stereo unspecified)
Q) Compare IC50: is it lower for a or for b ? Answer by stating the label of the chosen item.
A) b
(b: 15.3 µM, a: 38.7 µM)

====

Published IC50 for Prostaglandin G/H synthase 1 (Ovis aries, UniProt P05979), assembled from different documents, is shown next.

Cn1c(Br)c(Br)c(-c2ccc(F)cc2)c1-c1ccc(S(C)(=O)=O)cc1    767 µM
COc1ccc(-c2c(-c3ccc(N)cc3)noc2CC(=O)O)cc1    > 50 µM
CC(=O)Nc1ccc(OC(=O)c2ccccc2Nc2c(Cl)ccc(C)c2Cl)cc1    > 20 µM

As a next step, examine the compound that follows.
Known value: Prostaglandin G/H synthase 1 (Ovis aries, UniProt P05979) IC50 of the compound `CC(=O)Oc1ccccc1SCc1ccccc1` equals > 400 µM

====

Published pIC50 for Prostaglandin G/H synthase 1 (Ovis aries, UniProt P05979), assembled from different documents, is shown next.
pIC50: −log10 of the molar value.

Below: 4 molecules and their reported pIC50.
CS(=O)(=O)c1ccc(C2SCC(=O)N2Cc2ccccc2)cc1 (stereo not given)    < 4.00
CC(C)(C)c1cc(/C=N/NC(=O)c2cccnc2)c(O)c(C(C)(C)C)c1    < 3.52
O=C(O)Cn1c2c(c3cc(C(F)(F)F)ccc31)CN(C(=O)c1ccccc1)CC2    < 5.00
CCCCCCC(Sc1nc(Cl)cc(NCCOc2ccccc2)n1)C(=O)O (stereo not given)    < 5.00

As a next step, examine the molecule that follows.
Known value: Prostaglandin G/H synthase 1 (Ovis aries, UniProt P05979) pIC50 of the molecule `CS(=O)(=O)c1ccc(-c2nccnc2-c2ccccc2)cc1` equals < 3.52

====

Published IC50 for Prostaglandin G/H synthase 1 (Ovis aries), assembled from different documents, is shown next.
RECORDED METRIC: IC50 (µM)

Below: 3 molecules and their reported IC50.
CSc1nc2ccccc2n1-c1csc(NC(=O)c2ccccc2)n1    5.33
CC(=O)OCO/N=[N+](\[O-])N1CCC[C@H]1COC(=O)Cc1ccc(-c2cc(C(F)(F)F)nn2-c2ccc(S(C)(=O)=O)cc2)cc1    11.8
Oc1ccc(-c2cn(-c3ccc(O)cc3)c(-c3ccc(O)cc3)n2)cc1    12.2

1 = COc1ccc2c(c1)c(CC(=O)NCCCCCCC(=O)NO)c(C)n2C(=O)c1ccc(Cl)cc1
2 = COc1ccc2c(c1)c(CC(=O)NC(C)(C)CO)c(C)n2C(=O)c1ccc(Cl)cc1
Q) Which record would sort first by descending IC50, 1 or 2 ? Answer by stating the label of the chosen item.
A) 1
(1: 21 µM, 2: 0.8 µM)

====

Published pIC50 for Prostaglandin G/H synthase 1 (Ovis aries), assembled from different documents, is shown next.
pIC50: −log10 of the molar value.

Known value: Prostaglandin G/H synthase 1 (Ovis aries) pIC50 of the compound `O=C1OCC(c2ccc(OC(F)(F)F)cc2)=C1c1cccc(F)c1` equals < 4.60

Known value: Prostaglandin G/H synthase 1 (Ovis aries) pIC50 of the compound CC(C)c1ccc2c(n1)Oc1ccc(C(C)C(=O)O)cc1C2 (stereo not drawn) equals < 4.00

Known value: Prostaglandin G/H synthase 1 (Ovis aries) pIC50 of the compound `Cc1onc(-c2ccc(S(C)(=O)=O)cc2)c1-c1ccc(F)cc1` equals < 4.30

====

Published IC50 for Prostaglandin G/H synthase 1 (Ovis aries, UniProt P05979), assembled from different documents, is shown next.
Molecular target: Prostaglandin G/H synthase 1 (Ovis aries, UniProt P05979)
Sequence (P05979 whole entry): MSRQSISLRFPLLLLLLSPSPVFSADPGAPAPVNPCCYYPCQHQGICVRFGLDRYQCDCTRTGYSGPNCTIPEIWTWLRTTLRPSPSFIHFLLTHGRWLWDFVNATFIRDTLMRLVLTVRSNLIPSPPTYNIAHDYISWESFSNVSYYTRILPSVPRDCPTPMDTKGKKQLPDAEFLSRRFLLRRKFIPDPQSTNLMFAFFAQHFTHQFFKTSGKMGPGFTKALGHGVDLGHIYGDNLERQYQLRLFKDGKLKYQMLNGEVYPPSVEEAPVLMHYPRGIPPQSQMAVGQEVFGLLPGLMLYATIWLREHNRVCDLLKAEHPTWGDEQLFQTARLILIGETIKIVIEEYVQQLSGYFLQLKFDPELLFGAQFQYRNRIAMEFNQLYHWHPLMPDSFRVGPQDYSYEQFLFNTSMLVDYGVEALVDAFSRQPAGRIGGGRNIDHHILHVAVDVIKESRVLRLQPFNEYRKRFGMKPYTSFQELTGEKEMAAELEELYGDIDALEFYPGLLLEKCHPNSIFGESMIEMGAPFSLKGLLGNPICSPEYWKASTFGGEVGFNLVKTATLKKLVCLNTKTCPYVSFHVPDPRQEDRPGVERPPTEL

Below: 4 compounds and their reported IC50.
CS(=O)(=O)c1ccc(-c2c(-c3ccccc3)cc(-c3ccc([N+](=O)[O-])cc3)oc2=O)cc1    > 100 µM
CC(C)(C)c1cc(-c2nsc(N)n2)cc(C(C)(C)C)c1O    > 20 µM
O=C1CSC(N/N=C\c2cn(-c3ccccc3)nc2-c2ccc(Br)cc2)=N1    66.3 µM
CCCCCCCOc1ccccc1OC(C)=O    > 40 µM

Known value: Prostaglandin G/H synthase 1 (Ovis aries, UniProt P05979) IC50 of the compound CCCCCCC(Sc1nc(Cl)cc(NCc2ccc(-c3ccccc3)cc2)n1)C(=O)O (stereo unspecified) equals > 10 µM

Known value: Prostaglandin G/H synthase 1 (Ovis aries, UniProt P05979) IC50 of the compound CCCCCCC(Sc1nc(Cl)cc(NCc2ccc(-c3ccccc3)cc2)n1)C(=O)OCC (stereo unspecified) equals > 10 µM

====

Biological target: Prostaglandin G/H synthase 1 (Ovis aries, UniProt P05979)
Sequence (P05979 whole entry): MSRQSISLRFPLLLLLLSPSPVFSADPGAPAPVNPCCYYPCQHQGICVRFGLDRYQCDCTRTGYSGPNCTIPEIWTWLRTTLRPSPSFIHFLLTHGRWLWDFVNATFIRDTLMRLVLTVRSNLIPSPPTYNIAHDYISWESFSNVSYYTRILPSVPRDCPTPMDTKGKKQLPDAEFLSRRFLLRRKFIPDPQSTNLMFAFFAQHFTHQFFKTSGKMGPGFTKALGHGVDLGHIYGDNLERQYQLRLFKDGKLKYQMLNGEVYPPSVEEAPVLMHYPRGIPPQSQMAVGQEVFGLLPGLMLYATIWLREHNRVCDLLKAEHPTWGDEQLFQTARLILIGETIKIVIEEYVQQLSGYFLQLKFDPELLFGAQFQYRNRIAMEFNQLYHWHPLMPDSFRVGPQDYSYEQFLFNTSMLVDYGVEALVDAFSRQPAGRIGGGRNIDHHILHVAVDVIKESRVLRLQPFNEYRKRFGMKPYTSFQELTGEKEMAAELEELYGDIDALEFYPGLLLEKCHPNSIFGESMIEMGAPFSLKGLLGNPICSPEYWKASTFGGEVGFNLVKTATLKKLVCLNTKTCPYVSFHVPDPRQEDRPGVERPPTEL
Published IC50 for Prostaglandin G/H synthase 1 (Ovis aries, UniProt P05979), assembled from different documents, is shown next.
RECORDED METRIC: IC50 (µM)

N#Cc1c(N=Cc2ccc3ccccc3c2)c(C(=O)Nc2ccccc2)n2c1CCC2    7.98

A = C/C=C/c1cncc(-c2ccc(C(C)C(=O)O)cc2)c1 (centres undefined)
B = CCSc1ncc(-c2ccc(S(C)(=O)=O)cc2)n1-c1ccc(OC)cc1
C = CC(C)=CCCC(C(=O)O)C1CNC(=N)N1 (centres undefined)
D = O=C(N/N=C/c1ccccc1)C(C(=O)N/N=C/c1ccccc1)N1C(=O)c2ccccc2S1(=O)=O
Q) Sort the compounds on IC50; start with the lowest figure. Answer format: the labels, in the requested order.
A) B, D, A, C
